Values compiled from the supplement of paper PMC12645437.

targetDesc: T1, CRBN, Q96SW2;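 further: pooled lentiviral library of zinc finger degron-EGFP fusions in mCherry-positive Jurkat cells, FACS-sorted after compound exposure, with degron abundance counted by next-generation sequencing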
T1 chain: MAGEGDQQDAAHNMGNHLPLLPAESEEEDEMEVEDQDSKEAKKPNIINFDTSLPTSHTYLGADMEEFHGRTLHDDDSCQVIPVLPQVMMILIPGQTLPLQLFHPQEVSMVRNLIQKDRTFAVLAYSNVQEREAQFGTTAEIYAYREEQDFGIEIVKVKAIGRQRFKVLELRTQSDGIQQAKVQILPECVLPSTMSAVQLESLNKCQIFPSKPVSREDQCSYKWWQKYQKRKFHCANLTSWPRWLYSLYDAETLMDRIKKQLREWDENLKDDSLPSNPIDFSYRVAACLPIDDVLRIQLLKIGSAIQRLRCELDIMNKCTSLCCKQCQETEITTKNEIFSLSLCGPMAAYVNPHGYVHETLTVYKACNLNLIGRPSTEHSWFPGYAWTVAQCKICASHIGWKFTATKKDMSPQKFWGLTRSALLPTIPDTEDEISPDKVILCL
procedureDetails: log2 fold change of degron read counts, EGFP-low vs EGFP+ sorted cells (limma voom), compound-induced degradation; higher = more compound-induced degradation of the degron-EGFP fusion; degrons are variants of IKZF1/3 zinc finger 2; compound dose not given here
conditionLabel: Jurkat; 18 h; compound: compound 33 (diphenyl IMiD analogue)
In all, about 8,300 sequences were measured (“log2 fold change of degron read counts, EGFP-low vs EGFP+ sorted cells (limma voom), compound-induced degradation”: median about -1.1, highest 2% from about 3.2 on). Shown is part of a subset that was picked to be rich in the highest values.
assayReadout: log2 fold change of degron read counts

polymersequence="FICPICGRVFTQKGNLLRHIKL [46F_47I_49P_50I_52G_53R_54V_55F_67L_, Q9UKT9]" reading=0.321
polymersequence="FYCPICGRAFTQKGNLLRHIKL [46F_47Y_49P_50I_52G_53R_54A_55F_67L_, Q9UKT9]" reading=-2.69
polymersequence="FWCNQCGAEFTQKGNLLRHIKL [46F_47W_49N_50Q_52G_53A_54E_55F_67L_, Q9UKT9]" reading=-2.24
polymersequence="FWCEICGACFTQKGNLLRHIKL [46F_47W_49E_50I_52G_53A_54C_55F_67L_, Q9UKT9]" reading=2.77
